# inhibition listing for each entry below
TEST_METHOD_NOTES: M. tuberculosis growth inhibition, HTS (AID 449762);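 further: bacterial growth assessed after seven days of incubation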
CONDITION_PARAMETERS: M. tuberculosis H37Rv growth inhibition, 7H9 media; at 25 µM; stronger effect = higher value
Among all 330,000 compounds or so, about 1,900 (0.58%) were called active. Roughly 4% stayed inconclusive and do not appear here. Only a sample is shown. Entries with a potency or affinity are not part of this list.
Quick note: give the figure in %, leave out the unit.

Answer with the recorded inhibition for the compound listed here: `Cc1ccc2[nH]c3c(N4CCOCC4)ncnc3c2c1`
-3.57

For the compound `Cc1ccc2c(c1)[nH]c1c(N3CCN(Cc4ccccc4)CC3)ncnc12` , report inhibition.
3.28

Please list inhibition recorded for the compound `COc1ccccc1-n1c(N)c(C(N)=O)sc1=S`
-2.51

Return reported inhibition. Input compound: `CCOc1cccc2cc(C(=O)Nc3cc(C)on3)c(=O)oc12`
3.23

Please report inhibition for the following compound: `COc1ccc(NC(=O)c2ccc([N+](=O)[O-])o2)cc1`
6.03

Input `Cc1cc(OC(=O)c2ccco2)c2c3c(c(=O)oc2c1)CCC3` , output reported inhibition.
-2.68

Note down inhibition recorded for `O=C(/C=C/c1c(F)cccc1Cl)Nc1ccncc1`
9.18

Entry `CC(C)c1cc(-c2cc(-c3ccccc3)on2)nc(NC2CCCC2)n1` needs its inhibition filled in; supply it.
5.62

Identify measured inhibition corresponding to `CCOc1ccccc1C(=O)Nc1nccs1`
-0.35

Identify measured inhibition corresponding to O=C(NCC1CCCN1S(=O)(=O)c1cccs1)C(=O)Nc1cccc(F)c1 (stereo not drawn)
-3.47

Given the compound `COc1ccc(-c2nnc(NC(=O)CS(=O)(=O)c3ccc(F)cc3)o2)c(OC)c1` , write its reported inhibition.
7.17

Cited source for all entries: PubChem BioAssay AID449762
